These data points were gathered from ChEMBL document CHEMBL1149417.

ASSAY TARGET: Androgen receptor (Homo sapiens)
MEASURE NAME: pIC50
In simple prose, pIC50 is minus the logarithm base ten of a concentration in moles per litre.

COMPOUND | EXPERIMENTAL VALUE
C[C@]12CCC3C(CC=C4C[C@@H](O)CC[C@@]43/C=C\F)C1CC[C@@H]2O (some centres undefined) | 7.96
C[C@]12CCC3C(CC=C4C[C@@H](O)CC[C@@]43/C=C/Br)C1CC[C@@H]2O (some centres undefined) | 6.92
C[C@]12CCC3C(CC=C4C[C@@H](O)CC[C@@]43/C=C/Cl)C1CC[C@@H]2O (some centres undefined) | 5.84
CO/C=C/[C@]12CC[C@H](O)CC1=CCC1C2CC[C@@]2(C)C1CC[C@@H]2O (some centres undefined) | 5.34

IN: Give recorded pIC50 with Androgen receptor (Homo sapiens) for the following compound: CCC[C@]12CC[C@H](O)CC1=CCC1C2CC[C@@]2(C)C1CC[C@@H]2O (some centres undefined)
OUT: 5.75

IN: Give recorded pIC50 with Androgen receptor (Homo sapiens) for the following compound: C#CC12CC[C@H](O)CC1=CCC1C2CC[C@@]2(C)C1CC[C@@H]2O (single isomer, unassigned)
OUT: 5.75

----------
ASSAY TARGET: Androgen receptor (Homo sapiens, UniProt P10275)
Sequence (P10275 whole entry): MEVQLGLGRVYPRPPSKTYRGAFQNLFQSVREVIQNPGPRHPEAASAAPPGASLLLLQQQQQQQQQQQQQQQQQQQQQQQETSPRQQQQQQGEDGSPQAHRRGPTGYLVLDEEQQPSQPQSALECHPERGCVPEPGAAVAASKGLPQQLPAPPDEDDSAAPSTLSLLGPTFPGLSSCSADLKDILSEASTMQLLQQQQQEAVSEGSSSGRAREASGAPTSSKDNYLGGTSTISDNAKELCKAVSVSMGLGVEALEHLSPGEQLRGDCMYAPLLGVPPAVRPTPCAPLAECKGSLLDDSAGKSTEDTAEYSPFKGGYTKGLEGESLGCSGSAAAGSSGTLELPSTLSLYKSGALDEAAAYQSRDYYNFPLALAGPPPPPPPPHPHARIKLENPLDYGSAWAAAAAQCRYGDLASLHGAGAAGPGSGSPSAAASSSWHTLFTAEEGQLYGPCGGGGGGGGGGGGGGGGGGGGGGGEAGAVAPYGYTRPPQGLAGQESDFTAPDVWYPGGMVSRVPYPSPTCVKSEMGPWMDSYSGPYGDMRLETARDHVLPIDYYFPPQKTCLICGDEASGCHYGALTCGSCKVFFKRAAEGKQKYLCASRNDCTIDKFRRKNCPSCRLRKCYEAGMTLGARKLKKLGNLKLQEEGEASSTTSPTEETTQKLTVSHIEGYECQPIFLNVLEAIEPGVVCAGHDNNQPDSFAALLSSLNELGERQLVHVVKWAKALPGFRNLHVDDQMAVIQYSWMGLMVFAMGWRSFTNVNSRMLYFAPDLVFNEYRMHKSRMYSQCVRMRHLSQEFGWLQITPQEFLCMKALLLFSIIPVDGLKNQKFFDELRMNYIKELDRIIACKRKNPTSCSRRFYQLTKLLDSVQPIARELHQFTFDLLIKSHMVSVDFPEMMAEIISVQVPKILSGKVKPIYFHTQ
Listed compounds paired with reported IC50
Just the number plus its unit, please.

COMPOUND | IC50
C[C@]12CCC3C(CC=C4C[C@@H](O)CC[C@@]43/C=C\Cl)C1CC[C@@H]2O (some centres undefined) | 0.172 µM

IN: Give recorded IC50 with Androgen receptor (Homo sapiens, UniProt P10275) for the following compound: C=C[C@]12CC[C@H](O)CC1=CCC1C2CC[C@@]2(C)C1CC[C@@H]2O (some centres undefined)
OUT: 0.033 µM

IN: Give recorded IC50 with Androgen receptor (Homo sapiens, UniProt P10275) for the following compound: CC#C[C@]12CC[C@H](O)CC1=CCC1C2CC[C@@]2(C)C1CC[C@@H]2O (some centres undefined)
OUT: 3.73 µM

IN: Give recorded IC50 with Androgen receptor (Homo sapiens, UniProt P10275) for the following compound: C[C@]12CCC3C(CC=C4C[C@@H](O)CC[C@@]43/C=C/F)C1CC[C@@H]2O (some centres undefined)
OUT: 0.085 µM

IN: Give recorded IC50 with Androgen receptor (Homo sapiens, UniProt P10275) for the following compound: C#CC[C@]12CC[C@H](O)CC1=CCC1C2CC[C@@]2(C)C1CC[C@@H]2O (some centres undefined)
OUT: 1.72 µM

IN: Give recorded IC50 with Androgen receptor (Homo sapiens, UniProt P10275) for the following compound: C=C[C@]12CCC(=O)C=C1CCC1C2CC[C@@]2(C)C1CC[C@@H]2O (some centres undefined)
OUT: 0.0079 µM

----------
Estrogen receptor beta (Homo sapiens): recorded EC50 for assorted molecules
Sequence (Q92731 whole entry): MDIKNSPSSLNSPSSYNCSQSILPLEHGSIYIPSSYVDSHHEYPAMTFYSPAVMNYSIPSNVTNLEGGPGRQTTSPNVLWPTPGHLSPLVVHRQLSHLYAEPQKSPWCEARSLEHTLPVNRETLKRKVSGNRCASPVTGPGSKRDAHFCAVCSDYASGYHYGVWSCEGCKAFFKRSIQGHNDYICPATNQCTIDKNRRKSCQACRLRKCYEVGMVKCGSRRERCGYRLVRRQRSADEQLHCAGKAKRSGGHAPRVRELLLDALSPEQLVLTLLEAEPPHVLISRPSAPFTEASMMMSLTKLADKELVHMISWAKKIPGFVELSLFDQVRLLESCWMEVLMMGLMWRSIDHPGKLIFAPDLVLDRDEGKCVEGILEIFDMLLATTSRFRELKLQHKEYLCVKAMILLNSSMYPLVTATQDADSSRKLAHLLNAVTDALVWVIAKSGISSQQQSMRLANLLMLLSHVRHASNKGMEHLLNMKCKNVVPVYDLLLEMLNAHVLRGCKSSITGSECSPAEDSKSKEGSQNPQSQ
Only the number, expressed in nM, is required.

MOLECULE | UNIT OF MEASUREMENT | EC50
C/C=C\[C@]12CC[C@H](O)CC1=CCC1C2CC[C@@]2(C)C1CC[C@@H]2O (stereo partly drawn) | nM | 21
C[C@]12CCC3C(CC=C4C[C@@H](O)CC[C@@]43C=O)C1CC[C@@H]2O (stereo partly drawn) | nM | 78
C[C@]12CCC3C(CC=C4C[C@@H](O)CC[C@@]43/C=C\Cl)C1CC[C@@H]2O (stereo partly drawn) | nM | 91
C[C@]12CCC3C(CC=C4C[C@@H](O)CC[C@@]43/C=C/Br)C1CC[C@@H]2O (stereo partly drawn) | nM | 67
C[C@]12CCC3C(CC=C4C[C@@H](O)CC[C@@]43/C=C/Cl)C1CC[C@@H]2O (stereo partly drawn) | nM | 68

IN: Fill blank: measured EC50 of the molecule C=C[C@]12CC[C@H](O)CC1=CCC1C2CC[C@@]2(C)C1CC[C@]2(C)O (stereo partly drawn) is ____.
OUT: 31

IN: Fill blank: measured EC50 of the molecule C/C=C/[C@]12CC[C@H](O)CC1=CCC1C2CC[C@@]2(C)C1CC[C@@H]2O (stereo partly drawn) is ____.
OUT: 39

IN: Fill blank: measured EC50 of the molecule C=CC[C@]12CC[C@H](O)CC1=CCC1C2CC[C@@]2(C)C1CC[C@@H]2O (stereo partly drawn) is ____.
OUT: 148
